molecular target: MyD88^TIR (Homo sapiens); construct: MyD88 (residues 148–296); 6xHis; made in house; host or cells: E. coli BL21 (DE3); assay: T‐Surf phage library (P8 and P3) selection against MyD88^TIR, four rounds, NGS read counts; type: binding; conditions: P3 library, selection against MyD88, rank by count after grouping
Sequence (Q99836 148-296): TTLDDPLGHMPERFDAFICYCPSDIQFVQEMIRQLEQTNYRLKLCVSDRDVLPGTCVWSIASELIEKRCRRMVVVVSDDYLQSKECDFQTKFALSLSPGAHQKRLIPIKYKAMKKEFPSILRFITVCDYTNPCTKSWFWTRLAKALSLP
Overview of reported P3_MyD88 Rank (after) across a group of sequences:
parameter measured: P3_MyD88 Rank (after)

{"sequence content": "KNLIMEQLSKELHTVM", "parameter measured": "P3_MyD88 Rank (after)", "reported value": 724}
{"sequence content": "RISAFHQQLLMALKTQ", "parameter measured": "P3_MyD88 Rank (after)", "reported value": 706}
{"sequence content": "YTALTNSRLHNFRDND", "parameter measured": "P3_MyD88 Rank (after)", "reported value": 696}
{"sequence content": "NELVHVWSSKANIRVC", "parameter measured": "P3_MyD88 Rank (after)", "reported value": 718}
{"sequence content": "NQGRNALTAAADLSGW", "parameter measured": "P3_MyD88 Rank (after)", "reported value": 697}
{"sequence content": "KWLWEKRTCGHSRNTA", "parameter measured": "P3_MyD88 Rank (after)", "reported value": 676}
{"sequence content": "LKWGDPYLCSKLRYAM", "parameter measured": "P3_MyD88 Rank (after)", "reported value": 726}
{"sequence content": "GRYEELFMTETDERLP", "parameter measured": "P3_MyD88 Rank (after)", "reported value": 735}
{"sequence content": "SSYRESLRRLPALSKK", "parameter measured": "P3_MyD88 Rank (after)", "reported value": 739}
{"sequence content": "SSFRKGVWRVRKLSKK", "parameter measured": "P3_MyD88 Rank (after)", "reported value": 717}
{"sequence content": "SRFREGLWRLLKLSKK", "parameter measured": "P3_MyD88 Rank (after)", "reported value": 715}
{"sequence content": "SENYASSSWALTELVH", "parameter measured": "P3_MyD88 Rank (after)", "reported value": 723}
{"sequence content": "KNLFNELVSKNIVPL", "parameter measured": "P3_MyD88 Rank (after)", "reported value": 686}
{"sequence content": "NQWRKALTSAANLSGW", "parameter measured": "P3_MyD88 Rank (after)", "reported value": 703}
{"sequence content": "DSQSSLLKGEADLVGQ", "parameter measured": "P3_MyD88 Rank (after)", "reported value": 736}
{"sequence content": "EWIREQLHPALNERLP", "parameter measured": "P3_MyD88 Rank (after)", "reported value": 742}
{"sequence content": "LQNQWELALTKKTKLV", "parameter measured": "P3_MyD88 Rank (after)", "reported value": 733}
{"sequence content": "SDLRVVDDGSVSPLAM", "parameter measured": "P3_MyD88 Rank (after)", "reported value": 711}
{"sequence content": "VDPSHLRKQSGEFG", "parameter measured": "P3_MyD88 Rank (after)", "reported value": 683}
{"sequence content": "EWGDPYFWSKLRYAM", "parameter measured": "P3_MyD88 Rank (after)", "reported value": 695}
{"sequence content": "SELRVVDDGSVSPRET", "parameter measured": "P3_MyD88 Rank (after)", "reported value": 741}
{"sequence content": "SSFHEGLWRMLELSKK", "parameter measured": "P3_MyD88 Rank (after)", "reported value": 737}
{"sequence content": "YLKWGYPRFWDRLRFV", "parameter measured": "P3_MyD88 Rank (after)", "reported value": 729}
{"sequence content": "YYLDPSHLRKQSGW", "parameter measured": "P3_MyD88 Rank (after)", "reported value": 720}
{"sequence content": "LVAHEISKMMKVFATI", "parameter measured": "P3_MyD88 Rank (after)", "reported value": 694}
{"sequence content": "QQVVRYRLEIVRVTKL", "parameter measured": "P3_MyD88 Rank (after)", "reported value": 738}
{"sequence content": "STAMTNRGFHTFRDND", "parameter measured": "P3_MyD88 Rank (after)", "reported value": 688}
{"sequence content": "NQWRNALTAAAHLTGW", "parameter measured": "P3_MyD88 Rank (after)", "reported value": 721}
{"sequence content": "GEDTLYTFTGHLQATL", "parameter measured": "P3_MyD88 Rank (after)", "reported value": 719}
{"sequence content": "KEVEVWRDALTKVVGL", "parameter measured": "P3_MyD88 Rank (after)", "reported value": 713}
{"sequence content": "YAFTCHLHRYLVQRCV", "parameter measured": "P3_MyD88 Rank (after)", "reported value": 692}
{"sequence content": "DTKLKKGESIAPALMR", "parameter measured": "P3_MyD88 Rank (after)", "reported value": 704}
{"sequence content": "NELVRVWSSKANSRVG", "parameter measured": "P3_MyD88 Rank (after)", "reported value": 716}
{"sequence content": "YNFISQLYDALQRNRI", "parameter measured": "P3_MyD88 Rank (after)", "reported value": 710}

###

Molecular target: MyD88^TIR (Homo sapiens)
Construct: MyD88 (residues 148–296); 6xHis; made in house; host or cells: E. coli BL21 (DE3)
Assay: T‐Surf phage library (P8 and P3) selection against MyD88^TIR, four rounds, NGS read counts
Format: binding
Settings: P3 library, selection against MyD88, rank before grouping
Method: T‐Surf libraries were screened against the immobilized TIR domains of two major human TLR adaptor proteins, MAL^TIR and MyD88^TIR, allowing cross‐species selection of TIR‐binding motifs with 190 946 TIR‐derived peptides in a single binding assay (Scheme 1). Enriched phage pools from the fourth round of selection were analyzed using NGS after barcoding the peptide‐coding regions of the phage pools. […]
Overview of reported P3_MyD88 Rank (before) across a group of sequences:
parameter measured: P3_MyD88 Rank (before)

{"sequence content": "PKVGSWRQALEKAGKL", "assay target": "MyD88^TIR (Homo sapiens)", "parameter measured": "P3_MyD88 Rank (before)", "reported value": 2763}
{"sequence content": "SSFREGLWRLLELSKLRYAM", "assay target": "MyD88^TIR (Homo sapiens)", "parameter measured": "P3_MyD88 Rank (before)", "reported value": 3173}
{"sequence content": "AFLYTFLINLTHPTNF", "assay target": "MyD88^TIR (Homo sapiens)", "parameter measured": "P3_MyD88 Rank (before)", "reported value": 1881}
{"sequence content": "KERPFGAQRAEKWRAALT", "assay target": "MyD88^TIR (Homo sapiens)", "parameter measured": "P3_MyD88 Rank (before)", "reported value": 3671}
{"sequence content": "FLSYREGLWRLLELSKK", "assay target": "MyD88^TIR (Homo sapiens)", "parameter measured": "P3_MyD88 Rank (before)", "reported value": 1376}
{"sequence content": "SSVRECLWRLLELSKK", "assay target": "MyD88^TIR (Homo sapiens)", "parameter measured": "P3_MyD88 Rank (before)", "reported value": 3268}
{"sequence content": "YLKWGSPWFWDRLRFGPIGQ", "assay target": "MyD88^TIR (Homo sapiens)", "parameter measured": "P3_MyD88 Rank (before)", "reported value": 1571}
{"sequence content": "SENYATSTWAPDELVR", "assay target": "MyD88^TIR (Homo sapiens)", "parameter measured": "P3_MyD88 Rank (before)", "reported value": 2998}
{"sequence content": "LKEESWRRAQEKAGKL", "assay target": "MyD88^TIR (Homo sapiens)", "parameter measured": "P3_MyD88 Rank (before)", "reported value": 2536}
{"sequence content": "YNLISHLYDAMHRNRI", "assay target": "MyD88^TIR (Homo sapiens)", "parameter measured": "P3_MyD88 Rank (before)", "reported value": 1746}
{"sequence content": "LEWGEPIVLEKQRSVT", "assay target": "MyD88^TIR (Homo sapiens)", "parameter measured": "P3_MyD88 Rank (before)", "reported value": 2328}
{"sequence content": "NQWRNALTAAANLRL", "assay target": "MyD88^TIR (Homo sapiens)", "parameter measured": "P3_MyD88 Rank (before)", "reported value": 3498}
{"sequence content": "NQWRNALTAAANLIGR", "assay target": "MyD88^TIR (Homo sapiens)", "parameter measured": "P3_MyD88 Rank (before)", "reported value": 3499}
{"sequence content": "YQWRNALSAAANLCGW", "assay target": "MyD88^TIR (Homo sapiens)", "parameter measured": "P3_MyD88 Rank (before)", "reported value": 1617}
{"sequence content": "LSRVPSGHVIPGFVAI", "assay target": "MyD88^TIR (Homo sapiens)", "parameter measured": "P3_MyD88 Rank (before)", "reported value": 2378}
{"sequence content": "NDLLHVWSSKANSLVG", "assay target": "MyD88^TIR (Homo sapiens)", "parameter measured": "P3_MyD88 Rank (before)", "reported value": 3389}
{"sequence content": "QLIQQWIELHLHQLHL", "assay target": "MyD88^TIR (Homo sapiens)", "parameter measured": "P3_MyD88 Rank (before)", "reported value": 2880}
